Give measured pIC50 for each item. Keep answers brief.
system: P30-OHK; experiment: cells; type: functional, cell-based, Homo sapiens; conditions: Homo sapiens, P30-OHK
Description: SANGER: Inhibition of human P30-OHK cell growth in a cell viability assay.
Note: pIC50 values are expressed as the negative base-10 logarithm of concentration in M.

What reported pIC50 corresponds to Nc1ccn([C@@H]2O[C@H](CO)[C@@H](O)C2(F)F)c(=O)n1 on P30-OHK?
8.84

Which measured pIC50 belongs to N#Cc1c(O)c2c(-c3ccc(-c4ccccc4O)cc3)csc2[nH]c1=O , tested on P30-OHK?;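 also: growth inhibition of the P30-OHK cell line, read out with a cell viability assay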
6.00

====

tested on: LB1047-RCC; test: cells; type: functional, cell-based, Homo sapiens; conditions: Homo sapiens, LB1047-RCC;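 also: inhibition of cell growth, determined with a cell viability assay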
Description: SANGER: Inhibition of human LB1047-RCC cell growth in a cell viability assay.
Counter-ions that a name gives are not always drawn.
parameter_measured: IC50

Need IC50, item C=C(c1ccc(C(=O)O)cc1)c1cc2c(cc1C)C(C)(C)CCC2(C)C [BEXAROTENE]
> 8000 nM

I have this molecule here, Cn1cnc2c(F)c(Nc3ccc(Br)cc3Cl)c(C(=O)NOCCO)cc21 [SELUMETINIB] , and I need its recorded IC50.
> 4000 nM

I would be grateful if you could share the reported IC50 for COC1=CC(c2cc3ccccc3[nH]2)=N/C1=C\c1[nH]c(C)cc1C [OBATOCLAX MESYLATE] .
358 nM

====

system: NCI-H1693; experiment: cells; assay type: functional, cell-based, Homo sapiens; conditions: Homo sapiens, NCI-H1693
Description: SANGER: Inhibition of human NCI-H1693 cell growth in a cell viability assay.
Where a name gives a salt, the structure may show the parent alone.
So I've got a bunch of molecules here, and I need their pIC50 values.
// scale note: pIC50 = -log10(conc_M); give the bare number

// lookup pIC50 for CO[C@H]1C[C@@H]2CC[C@@H](C)[C@@](O)(O2)C(=O)C(=O)N2CCCC[C@H]2C(=O)O[C@H]([C@H](C)C[C@@H]2CC[C@@H](OC(=O)C(C)(CO)CO)[C@H](OC)C2)CC(=O)[C@H](C)/C=C(\C)[C@@H](O)[C@@H](OC)C(=O)[C@H](C)C[C@H](C)/C=C/C=C/C=C/1C
7.04

Could you share which pIC50 value was measured for COC1=CC(c2cc3ccccc3[nH]2)=N/C1=C\c1[nH]c(C)cc1C [OBATOCLAX MESYLATE] ?
5.70

Given CC(C)c1ccccc1Cc1cc(C(=O)Nc2ccc(S(=O)(=O)c3ccccc3C(C)(C)C)cc2)c(O)c(O)c1O , state its recorded pIC50.
5.90

====

Please go through the items and note down their IC50.
system: MMAC-SF; experiment: cells; assay type: functional, cell-based, Homo sapiens; settings: Homo sapiens, MMAC-SF
Description: SANGER: Inhibition of human MMAC-SF cell growth in a cell viability assay.
Structures can show the parent of a compound that is named as a salt.

Look up IC50 for this compound: OCCCNc1cc(-c2ccnc(Nc3cccc(Cl)c3)n2)ccn1
> 0.256 µM

Recorded IC50 for CCN(CC)CCNC(=O)c1c(C)[nH]c(/C=C2\C(=O)Nc3ccc(F)cc32)c1C , please?
6.11 µM

Fill in the blank: the reported IC50 of COC1=CC(c2cc3ccccc3[nH]2)=N/C1=C\c1[nH]c(C)cc1C [OBATOCLAX MESYLATE] is ____.
0.0767 µM

Entry CC[C@H](CO)Nc1nc(NCc2ccccc2)c2ncn(C(C)C)c2n1 has what IC50?
> 16 µM

// returns reported IC50 for input Nc1cccc2c1CN(C1CCC(=O)NC1=O)C2=O (stereo not drawn) [LENALIDOMIDE]
> 5 µM

Reported IC50 for COc1cc(N2CCN(C)CC2)ccc1Nc1ncc2c(n1)N(C)c1ccccc1C(=O)N2C : what is it?
> 8 µM

Record request: IC50 value, item Cc1ccc(-c2c(C(=O)CCl)n(CCCO)c3ncnc(N)c23)cc1
> 4 µM

State the recorded IC50 for this entry: CCC/C=C/C=C/C(=O)O[C@H]1/C(=C/C(=O)OC)C[C@H]2C[C@H]([C@@H](C)O)OC(=O)C[C@H](O)C[C@@H]3C[C@H](OC(C)=O)C(C)(C)[C@](O)(C[C@@H]4C/C(=C/C(=O)OC)C[C@H](/C=C/C(C)(C)[C@]1(O)O2)O4)O3
> 0.008 µM

====

test system: 8305C; assay: cells; format: functional, cell-based, Homo sapiens; details: Homo sapiens, 8305C
Description: SANGER: Inhibition of human 8305C cell growth in a cell viability assay.
Structures can show the parent of a compound that is named as a salt.
parameter_measured: IC50

Given the entry COC1=CC(c2cc3ccccc3[nH]2)=N/C1=C\c1[nH]c(C)cc1C [OBATOCLAX MESYLATE] , report its measured IC50.
180 nM

// lookup IC50 for CO[C@H]1C[C@@H]2CC[C@@H](C)[C@@](O)(O2)C(=O)C(=O)N2CCCC[C@H]2C(=O)O[C@H]([C@H](C)C[C@@H]2CC[C@@H](OC(=O)C(C)(CO)CO)[C@H](OC)C2)CC(=O)[C@H](C)/C=C(\C)[C@@H](O)[C@@H](OC)C(=O)[C@H](C)C[C@H](C)/C=C/C=C/C=C/1C
> 200 nM

Quick one: IC50 for CS(=O)(=O)c1ccc(C(=O)Nc2ccc(Cl)c(-c3ccccn3)c2)c(Cl)c1 ?
> 10000 nM

// returns reported IC50 for input C=C(c1ccc(C(=O)O)cc1)c1cc2c(cc1C)C(C)(C)CCC2(C)C
> 8000 nM

====

For each of the compounds below, state its IC50.
tested on: KYSE-450; test: cells; type: functional, cell-based, Homo sapiens; conditions: Homo sapiens, KYSE-450;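 also: cell growth inhibition measured by a viability assay in human KYSE-450 cells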
Description: SANGER: Inhibition of human KYSE-450 cell growth in a cell viability assay.

Entry Cc1cn(-c2cc(NC(=O)c3ccc(C)c(Nc4nccc(-c5cccnc5)n4)c3)cc(C(F)(F)F)c2)cn1 has what IC50?
> 2 µM

Which IC50 is listed for O=C(O)c1ccc(-c2c[nH]c3ncc(-c4ccccc4)cc23)cc1C1CCCC1 ?
5.6 µM

Give the measured IC50 of CCC/C=C/C=C/C(=O)O[C@H]1/C(=C/C(=O)OC)C[C@H]2C[C@H]([C@@H](C)O)OC(=O)C[C@H](O)C[C@@H]3C[C@H](OC(C)=O)C(C)(C)[C@](O)(C[C@@H]4C/C(=C/C(=O)OC)C[C@H](/C=C/C(C)(C)[C@]1(O)O2)O4)O3 .
> 0.008 µM

Please report the recorded IC50 for CS(=O)(=O)c1ccc(C(=O)Nc2ccc(Cl)c(-c3ccccn3)c2)c(Cl)c1 .
> 10 µM

# query: IC50 of entry CC(C)c1ccccc1Cc1cc(C(=O)Nc2ccc(S(=O)(=O)c3ccccc3C(C)(C)C)cc2)c(O)c(O)c1O
0.175 µM

Need IC50 of C=C(c1ccc(C(=O)O)cc1)c1cc2c(cc1C)C(C)(C)CCC2(C)C , thanks.
> 8 µM

May I ask what IC50 has been recorded for CC(C)CCN1c2nc(Nc3cc(F)c(O)c(F)c3)ncc2N(C)C(=O)C1C (stereo unspecified) ?
> 5 µM

// returns reported IC50 for input COc1cccc2c1C(=O)c1c(O)c3c(c(O)c1C2=O)C[C@@](O)(C(=O)CO)C[C@@H]3O[C@H]1C[C@H](N)[C@H](O)[C@H](C)O1
0.0447 µM

Consider the compound shown here: Oc1ccc2ccccc2c1SSc1c(O)ccc2ccccc12 What is its recorded IC50?
> 32 µM

Data request, read-out IC50, for Cc1cc([N+](=O)[O-])ccc1NS(=O)(=O)c1cc(Cl)ccc1Cl
6.37 µM

Please look up its IC50: Nc1cccc2c1CN(C1CCC(=O)NC1=O)C2=O (stereo unspecified) [LENALIDOMIDE]
> 5 µM

====

test system: TE-12; assay: cells; assay type: functional, cell-based, Homo sapiens; details: te-12
Description: SANGER: Inhibition of human TE-12 cell growth in a cell viability assay.
parameter_measured: pIC50
Keep in mind that pIC50 stands for -log10 of concentration in molar terms.

Request - read-out pIC50 | tested on TE-12 | sequence BLEOMYCIN;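 also: growth inhibition of TE-12 cells, read out by a cell viability assay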
6.14

====

system: CAL-27; test: cells; assay type: functional, cell-based, Homo sapiens; details: cal-27;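 also: Viability-based readout, IC50 reflecting inhibition of CAL-27 cell growth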
Description: SANGER: Inhibition of human CAL-27 cell growth in a cell viability assay.
parameter_measured: IC50 (µM)
The reply should be a number in µM, with the unit left off.

Suppose we examine the sequence BLEOMYCIN ; what IC50 value has been reported?
8.07

====

tested on: COLO-829; experiment: cells; assay type: functional, cell-based, Homo sapiens; settings: Homo sapiens, COLO-829
Description: SANGER: Inhibition of human COLO-829 cell growth in a cell viability assay.
I'd appreciate it if you could supply IC50 values for the items below.

Param item = COc1cccc2c1C(=O)c1c(O)c3c(c(O)c1C2=O)C[C@@](O)(C(=O)CO)C[C@@H]3O[C@H]1C[C@H](N)[C@H](O)[C@H](C)O1 [DOXORUBICIN] ; retrieve measured IC50.
> 1020 nM

I'd like to know its IC50. The molecule in question is CC(=O)O[C@H]1C(=O)[C@@]2(C)[C@H]([C@H](OC(=O)c3ccccc3)[C@]3(O)C[C@H](OC(=O)[C@H](O)[C@@H](NC(=O)c4ccccc4)c4ccccc4)C(C)=C1C3(C)C)[C@]1(OC(C)=O)CO[C@@H]1C[C@@H]2O [PACLITAXEL]
> 102 nM

Which IC50 reading was recorded for the molecule C=C(c1ccc(C(=O)O)cc1)c1cc2c(cc1C)C(C)(C)CCC2(C)C [BEXAROTENE] ?
> 8000 nM

Query: IC50; subject: CC[C@H](CO)Nc1nc(NCc2ccccc2)c2ncn(C(C)C)c2n1 [SELICICLIB]
> 16000 nM

Request the reported IC50 associated with CCN(CC)CCCCNc1ncc2cc(-c3cc(OC)cc(OC)c3)c(NC(=O)NC(C)(C)C)nc2n1 [PD-173074]
> 2000 nM

Field request: IC50 | item: CC1(C)CNc2cc(NC(=O)c3cccnc3NCc3ccncc3)ccc21 [MOTESANIB]
> 2000 nM

What value of IC50 has been reported for the following molecule? COc1cc2c(Nc3ccc(NC(=O)c4ccccc4)cc3)ncnc2cc1OCCCN1CCOCC1
2640 nM

What does the record list as IC50 for CCC/C=C/C=C/C(=O)O[C@H]1/C(=C/C(=O)OC)C[C@H]2C[C@H]([C@@H](C)O)OC(=O)C[C@H](O)C[C@@H]3C[C@H](OC(C)=O)C(C)(C)[C@](O)(C[C@@H]4C/C(=C/C(=O)OC)C[C@H](/C=C/C(C)(C)[C@]1(O)O2)O4)O3 [BRYOSTATIN 1] ?
> 8 nM

Values were extracted from ChEMBL document CHEMBL1201861.
